Test system: AR 1.0 cells
assayProcedure: Potentiation index with doxorubicin titration
Type: cell-based, mouse
conditionDetails: Table C1, RMA 100 nM
Parameter class (string): assigned from measured Potentiation Index at RMA concentration 100 nM. Ranges: low band = under 20, middle band = from 20 up to 100, high band = 100 and over

Take a look at these entries with their results.
[[record]]
chemicalstring = "CCCCOc1ccc(CN(C)CCc2ccc(NC(=O)c3ccccc3NC(=O)c3cnc4ccccc4c3)cc2)cc1OC"
classification = "low band"

[[record]]
chemicalstring = "COc1ccc(CN(C)CCc2ccc(NC(=O)c3ccccc3NC(=O)c3cnc4ccccc4c3)cc2)cc1OC(C)C"
classification = "high band"

[[record]]
chemicalstring = "COc1ccc(CN(C)CCc2ccc(NC(=O)c3ccccc3NC(=O)c3cnc4ccccc4c3)cc2)cc1OC"
classification = "high band"

[[record]]
chemicalstring = "COc1ccc(CN(C)Cc2ccc(NC(=O)c3ccccc3NC(=O)c3cccnc3)cc2)cc1OC(C)C"
classification = "high band"

[[record]]
chemicalstring = "COc1cc2c(cc1OC)CN(CCc1ccc(NC(=O)c3cccnc3NC(=O)c3cnc4ccccc4n3)cc1)CC2"
classification = "low band"


Sort `COc1cc(CN(C)CCc2ccc(NC(=O)c3ccccc3NC(=O)c3cnc4ccccc4c3)cc2)ccc1O` into one of the categories.
middle band

Sort `COc1cc2c(cc1OC)CN(CCc1ccc(NC(=O)c3cc(SC)ccc3NC(=O)c3cnc4ccccc4c3)cc1)CC2` into one of the categories.
high band
